These molecules were tested on Aromatase (Homo sapiens); pIC50 is the recorded read-out.
In textbook form, pIC50 equals minus log to base ten of the concentration in mol/L.

[[record]]
molecule = "C[C@]12CC[C@H]3[C@@H](CCC4=CC(=O)CC[C@@]43CCl)[C@@H]1CCC2=O"
measurement = 5.85

[[record]]
molecule = "C[C@]12C=C(Cc3ccccc3)C(=O)C=C1CC[C@@H]1[C@@H]2CC[C@]2(C)C(=O)CC[C@@H]12"
measurement = 4.06

[[record]]
molecule = "C[C@]12CCCCC1=CC(=O)[C@@H]1[C@@H]2CC[C@]2(C)C(O)CC[C@@H]12 (some centres not stated)"
measurement = 5.80

[[record]]
molecule = "C[C@]12CCC(=O)C(F)=C1CC[C@@H]1[C@@H]2CC[C@]2(C)C(=O)CC[C@@H]12"
measurement = 6.32

[[record]]
molecule = "C[C@]12CC[C@H]3[C@@H](CCC4=CC(=O)CC[C@@]43CC#N)[C@@H]1CCC2=O"
measurement = 5.58


stdin: Field: pIC50 (Aromatase (Homo sapiens)). Entry: C[C@]12C=CC(=O)C=C1[C@@H](CCCCCc1ccccc1)C[C@@H]1[C@@H]2CC[C@]2(C)C(=O)CC[C@@H]12
stdout: 6.48

====

These molecules were tested on Aromatase (Homo sapiens, UniProt P11511); IC50 is the recorded read-out.
Sequence (P11511 whole entry): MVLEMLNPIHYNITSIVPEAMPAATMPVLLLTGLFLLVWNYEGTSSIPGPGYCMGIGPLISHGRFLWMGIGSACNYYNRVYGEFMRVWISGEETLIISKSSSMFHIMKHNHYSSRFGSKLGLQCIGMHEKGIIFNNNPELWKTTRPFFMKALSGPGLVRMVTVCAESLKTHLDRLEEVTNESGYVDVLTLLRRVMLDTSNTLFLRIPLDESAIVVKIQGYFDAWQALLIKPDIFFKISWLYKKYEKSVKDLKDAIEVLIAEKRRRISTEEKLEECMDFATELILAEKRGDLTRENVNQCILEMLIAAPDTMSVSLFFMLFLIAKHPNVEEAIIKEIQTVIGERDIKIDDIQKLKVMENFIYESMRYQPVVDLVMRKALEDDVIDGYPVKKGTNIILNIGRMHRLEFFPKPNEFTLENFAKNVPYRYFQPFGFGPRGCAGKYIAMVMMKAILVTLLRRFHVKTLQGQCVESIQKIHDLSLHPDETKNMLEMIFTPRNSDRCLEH
Respond with the bare value in µM.

[[record]]
molecule = "CC[C@]12C=CC(=O)C=C1CC[C@H]1[C@@H]3CCC(=O)[C@@]3(C)CC[C@@H]12"
unit_abbreviation = "µM"
measurement = 0.16

[[record]]
molecule = "C[C@]12CC[C@H]3[C@@H](CCC4=CC(=O)CC[C@@]43CO)[C@@H]1CCC2=O"
unit_abbreviation = "µM"
measurement = 13

[[record]]
molecule = "C[C@]12CC[C@H]3[C@@H](CCC4=CC(=O)CC[C@@]43CO)[C@@H]1C[C@@H](O)C2=O"
unit_abbreviation = "µM"
measurement = 800

[[record]]
molecule = "COC1=C2C(=O)C[C@@H]3[C@H](CC[C@]4(C)C(=O)CC[C@@H]34)[C@@]2(C)CC(C)(C)C1=O"
unit_abbreviation = "µM"
measurement = 1.9

[[record]]
molecule = "C[C@]12CCCC=C1CC[C@@H]1[C@@H]2CC[C@]2(C)C(=O)[C@H](O)C[C@@H]12"
unit_abbreviation = "µM"
measurement = 4

[[record]]
molecule = "CCCCCC[C@H]1C[C@@H]2[C@H](CC[C@]3(C)C(=O)CC[C@@H]23)[C@@]2(C)CCCC=C12"
unit_abbreviation = "µM"
measurement = 8.99


stdin: Look up IC50 for this molecule: CC1C[C@H]2[C@@H]3CC[C@H](O)[C@@]3(C)CC[C@@H]2[C@@]2(C)CCC(=O)C=C12 (some centres undefined)
stdout: 0.018

stdin: Look up IC50 for this molecule: CO[C@H]1C[C@@H]2[C@H](CC[C@]3(C)C(=O)CC[C@@H]23)c2ccc(O)cc21
stdout: 59

stdin: Look up IC50 for this molecule: C[C@]12CC[C@@H]3c4cc(C=O)c(O)cc4CC[C@H]3[C@@H]1CCC2=O
stdout: 11

====

These compounds were tested on Aromatase (Homo sapiens, UniProt P11511); pIC50 is the recorded read-out.
In textbook form, pIC50 equals minus log to base ten of the concentration in mol/L.

// below: answered compounds
[[record]]
compound = "CCC[C@H]1C[C@@H]2[C@H](CC[C@]3(C)C(=O)CC[C@@H]23)[C@@]2(C)CCCC=C12"
measurement = 6.64

[[record]]
compound = "CO[C@@H]1C[C@@H]2[C@H](CC[C@]3(C)C(=O)CC[C@@H]23)[C@@]2(C)CCCC=C12"
measurement = 7.30

[[record]]
compound = "Cc1ccc(CCC2=C[C@@]3(C)C(=CC2=O)CC[C@@H]2[C@@H]3CC[C@]3(C)C(=O)CC[C@@H]23)cc1"
measurement = 5.20

[[record]]
compound = "C[C@]12CCC(=O)C=C1[C@H](O)C(N=[N+]=[N-])[C@@H]1[C@@H]2CC[C@]2(C)C(=O)CC[C@@H]12 (stereo partly drawn)"
measurement = 5.52

[[record]]
compound = "C[C@]12CC[C@H]3[C@@H](C=CC4=CC(=O)C=C[C@@]43CCl)[C@@H]1CCC2=O"
measurement = 5.88


stdin: Look up pIC50 for this compound: C[C@]12CC[C@H]3[C@@H](CCC4=CC(=O)C=C[C@@]43CI)[C@@H]1CCC2=O
stdout: 5.26

stdin: Look up pIC50 for this compound: C[C@]12CCC(=O)C=C1C(=O)[C@@H](O)[C@@H]1[C@@H]2CC[C@]2(C)C(=O)CC[C@@H]12
stdout: 4.96

stdin: Look up pIC50 for this compound: C[C@]12CCCCC1=CC(=O)[C@@H]1[C@@H]2CC[C@]2(C)C(=O)CC[C@@H]12
stdout: 5.64
